# TESTED ON: human γδ TCR (Vγ9Vδ2) on human Vδ2+ γδ T cells (human) (UniProt A0JD36)
# PROCEDURE DETAILS: flow cytometry on expanded human Vδ2+ γδ T cells, nonlinear fit
MEASUREMENT NAME: Kd (nM)
I only need the number, in nM, no unit after it.

Query: // query Kd value for entry hu1D7v8 VHH-hIgG1 Fc-NNT (monomeric) (VHH) VHH: EVQLLESGGGEVQPGGSLRLSCVASRGKISQYAMGWYRQAPGKGLEWVAHISNTGDAAEYVDSVKGRFTISRDSTKNAVYLQMSSLRAEDTAVYKCNSVEDILAWGQGTLVTVKP
Reply: 7870

Query: Same thing, different binder: hu1D7v59 VHH-hIgG1 Fc-NNT (monomeric) (VHH) VHH: EVQLLESGGGEVQPGGSLRLSCVASRGKISQYRMGWYRQAPGKERELVAHISNTGDAAEYVAPVKDRFTISRDSTKNALYLQMSSLRAEDTAVYKCNSVEDILAWGQGTLVTVRP
Reply: 23.8

Query: Same thing, different binder: hu1D7v76 VHH-hIgG1 Fc-NNT (monomeric) (VHH) VHH: EVQLLESGGGEVQPGGSLRLSCVASRGKISQYRMGWYRQAPGKERELVAHISNTGDAAEYVVSVKDRFTISRDSTKNALYLQMSSLRAEDTAVYKCNSVEDILAWGQGTLVTVRP
Reply: 125

Query: Same thing, different binder: hu1D7v158-5 VHH-hIgG1 Fc-NNT (monomeric) (VHH) VHH: EVQLLESGGGEVQPGGSLRLSCVASRGKISQYRMGWYRQAPGKQRELVAHISNTGDAAEYVEPVKGRFTISRDNAKNALYLQMNSLRAEDTAVYKCNTVEDILAWGQGTLVTVEP
Reply: 2.82

Query: Same thing, different binder: hu1D7v28 VHH-hIgG1 Fc-NNT (monomeric) (VHH) VHH: EVQLLESGGGEVQPGGSLRLSCAASRGKISQYRMGWYRQAPGKELEWVAHISNTGDAAEYVDSVKGRFTISRDSTKNAVYLQMSSLRAEDTAVYKCNSVEDILAWGQGTLVTVKP
Reply: 15.7

Query: Same thing, different binder: 1D7v125 VHH-hIgG1 Fc-NNT (monomeric) (VHH) VHH: EVQLLESGGGEVQPGGSLRLSCVASRGKISQYRMGWYRQAPGKERELVAHISNTGDAAEYVEGVKDRFTISRDSTKNALYLQMSSLRAEDTAVYKCNSVEDILAWGQGTLVTVRP
Reply: 59

Query: Same thing, different binder: hu1D7v66 VHH-hIgG1 Fc-NNT (monomeric) (VHH) VHH: EVQLLESGGGEVQPGGSLRLSCVASRGKISQYRMGWYRQAPGKERELVAHISNTGDAAEYVDTVKDRFTISRDSTKNALYLQMSSLRAEDTAVYKCNSVEDILAWGQGTLVTVRP
Reply: 93.3

Query: Same thing, different binder: hu1D7v1 VHH-hIgG1 Fc-NNT (monomeric) (VHH) VHH: EVQLLESGGGEVQPGGSLRLSCVASRGKISQYRMGWYRQAPGKGLEWVAHISNTGDAAEYVDSVKGRFTISRDSTKNAVYLQMSSLRAEDTAVYKCNSVEDILAWGQGTLVTVKP
Reply: 5.23
